target desc: human ether-à-go-go-related gene (hERG) potassium channel (human, UniProt Q12809);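 further: peak tail current of the secondary pulse compared with the same well before compound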
Sequence (Q12809 whole entry, looked up): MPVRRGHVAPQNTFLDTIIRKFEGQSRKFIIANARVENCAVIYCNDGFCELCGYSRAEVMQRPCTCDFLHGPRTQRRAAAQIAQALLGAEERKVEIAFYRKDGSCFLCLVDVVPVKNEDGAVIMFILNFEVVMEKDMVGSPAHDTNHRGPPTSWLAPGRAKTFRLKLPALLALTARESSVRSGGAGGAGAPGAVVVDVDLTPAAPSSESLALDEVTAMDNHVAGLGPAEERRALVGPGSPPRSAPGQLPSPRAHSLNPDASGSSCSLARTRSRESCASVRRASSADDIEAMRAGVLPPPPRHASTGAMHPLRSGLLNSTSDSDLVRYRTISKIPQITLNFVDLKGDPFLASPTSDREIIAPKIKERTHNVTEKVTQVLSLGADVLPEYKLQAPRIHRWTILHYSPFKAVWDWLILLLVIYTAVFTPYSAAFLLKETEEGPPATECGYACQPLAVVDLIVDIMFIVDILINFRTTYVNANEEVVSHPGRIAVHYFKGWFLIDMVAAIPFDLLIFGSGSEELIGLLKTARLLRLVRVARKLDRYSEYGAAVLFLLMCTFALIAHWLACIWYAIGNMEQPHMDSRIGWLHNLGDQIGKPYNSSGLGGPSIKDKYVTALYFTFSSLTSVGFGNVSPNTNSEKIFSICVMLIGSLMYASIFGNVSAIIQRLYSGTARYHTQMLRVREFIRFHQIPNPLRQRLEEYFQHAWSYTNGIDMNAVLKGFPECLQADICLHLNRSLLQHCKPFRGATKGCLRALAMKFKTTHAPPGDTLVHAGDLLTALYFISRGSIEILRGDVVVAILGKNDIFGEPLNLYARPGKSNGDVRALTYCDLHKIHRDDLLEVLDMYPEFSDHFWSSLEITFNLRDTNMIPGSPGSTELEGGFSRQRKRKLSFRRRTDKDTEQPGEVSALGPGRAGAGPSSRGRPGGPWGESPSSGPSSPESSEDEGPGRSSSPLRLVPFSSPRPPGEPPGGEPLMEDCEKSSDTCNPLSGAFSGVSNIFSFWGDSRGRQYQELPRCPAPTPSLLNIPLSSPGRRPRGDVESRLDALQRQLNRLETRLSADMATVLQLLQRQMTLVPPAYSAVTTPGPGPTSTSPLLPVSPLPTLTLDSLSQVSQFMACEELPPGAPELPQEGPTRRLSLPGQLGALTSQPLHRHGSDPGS
protocol notes: primary screen, population patch clamp on CHO cells stably expressing hERG; higher = less effect of the substance
The campaign covered roughly 310,000 compounds. About 14,000 (4.5%) showed an effect of 50% or more. The effect is printed as a negative number. This is one part of a sample in which strong results are shown more often than they occur.
// reported hERG current change (%, negative = inhibition) at 10uM per item
Give just the numeric value; % need not be written.

Here's what some known entries look like.
- molecule: "CCOc1ccccc1NC(=O)N1CCC(NC(=O)c2ccccc2C)CC1"
  quantity unit: "%"
  value: -1.06
- molecule: "COc1ccc(C(=O)NCc2nnc(SCC(=O)NO)n2Cc2ccccc2)cc1"
  quantity unit: "%"
  value: -5.01
- molecule: "COc1ccc(Nc2nc(-c3cccc([N+](=O)[O-])c3)nc3ccccc23)cc1"
  quantity unit: "%"
  value: -5.91
- molecule: "CC(=O)Nc1ccc(NC(=O)c2cc(S(=O)(=O)N3CCCCC3)ccc2C)cc1"
  quantity unit: "%"
  value: 5.45
- molecule: "COc1ccc(C2c3ccc4ccccc4c3Oc3ncn(CCN4CCOCC4)c(=N)c32)cc1 (centres unmarked)"
  quantity unit: "%"
  value: -74.1
- molecule: "COc1ccc(C2c3ccc4ccccc4c3Oc3ncn(CCN4CCOCC4)c(=N)c32)cc1OC (centres unmarked)"
  quantity unit: "%"
  value: -53.4
- molecule: "COc1ccc(C2c3c(ccc4ccccc34)Oc3ncn4nc(Cc5ccccc5)nc4c32)cc1OC (centres unmarked)"
  quantity unit: "%"
  value: -7.49
- molecule: "CN(C)S(=O)(=O)c1cccc(NC(=O)c2cc3ccccc3o2)c1"
  quantity unit: "%"
  value: -13.7

Q) Query (molecule): COc1ccc(C2c3c(ncn(CCCN4CCOCC4)c3=N)Oc3ccc4ccccc4c32)cc1OC (centres unmarked) ; field requested: hERG current change (%, negative = inhibition) at 10uM
A) -51.3

Q) Now try CC(=O)n1cc(CO)c2ccccc21 .
A) 9.03

---

// reported hERG current change (%, negative = inhibition) at 10uM per item
target desc: human ether-à-go-go-related gene (hERG) potassium channel (human);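 further: peak tail current of the secondary pulse compared with the same well before compound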
protocol notes: primary screen, population patch clamp on CHO cells stably expressing hERG; higher = less effect of the substance
Screen size: about 310,000 compounds; about 14,000 (4.5%) showed an effect of 50% or more. Effects have a minus sign here. The full list was thinned out, with strong results kept by preference.
Give just the numeric value; % need not be written.

Here's what some known entries look like.
- compound: "CCc1cc(C(=O)NNC(=S)Nc2cccc(C)c2)cs1"
  value: 3.09
- compound: "O=C(CN1C2CCCC1CC(NC(=O)c1ccco1)C2)Nc1ccccc1 (stereo not shown)"
  value: -45.2
- compound: "O=C(CN1C2CCCC1CC(NC(=O)c1ccccc1)C2)NC1CC1 (stereo not shown)"
  value: 26.9

As a next step, examine the compound that follows.
Q) Query (compound): O=S(=O)(Nc1nc2ccccc2nc1N1CCc2ccccc2C1)c1ccc(Cl)cc1 ; field requested: hERG current change (%, negative = inhibition) at 10uM
A) 7.74

---

target desc: human ether-à-go-go-related gene (hERG) potassium channel (human, UniProt Q12809);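 further: peak tail current of the secondary pulse compared with the same well before compound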
protocol notes: primary screen, population patch clamp on CHO cells stably expressing hERG; higher = less effect of the substance
The campaign covered roughly 310,000 compounds. About 14,000 (4.5%) showed an effect of 50% or more. Effects have a minus sign here. The sample holds strong results, similar compounds and a random draw of the others, so the mix is not that of the screen.
reported endpoint: hERG current change (%, negative = inhibition) at 10uM (%)
Give just the numeric value; % need not be written.

- compound string: "Cc1ccc(/C(N)=N/OC(=O)CSc2ccccc2)cc1"
  quantity unit: "%"
  value: -5.49

Q) Query (molecule): CCOc1ccc(NC(=O)Cn2nc(C(N)=O)c3ccccc3c2=O)cc1S(=O)(=O)N1CCCC1 ; field requested: hERG current change (%, negative = inhibition) at 10uM
A) 0.537

Q) Now try CC(=O)c1ccc(Sc2nnc(C)s2)c([N+](=O)[O-])c1 .
A) 1.07

The values you see were collected from paper PMC4336329.
